Organism: Rattus norvegicus
Assay: Open TG-GATES - Regimen: Daily Repeat
Assay type: toxicity, organism-based, Sprague-Dawley
Set-up: regimen Daily Repeat, gender Male, age 6 weeks
Settings: in vivo, po, 100 mg/kg, […], tissue Plasma, route gavage, dose level Low, time 14 day
Below is a list of entries, each paired with its recorded CRE value.
EXPERIMENTAL_READOUT: CRE (mg/dL)

CC(S)C(=O)NCC(=O)O (centres undefined) [TIOPRONIN] | 0.2
CC(=O)[C@@]1(O)CC[C@H]2[C@@H]3C=C(Cl)C4=CC(=O)CC[C@]4(C)[C@H]3CC[C@@]21C [CHLORMADINONE] | 0.2
CCCCNC(=O)NS(=O)(=O)c1ccc(C)cc1 [TOLBUTAMIDE] | 0.2
O=C(O)c1ccccc1Nc1ccccc1 [FENAMIC ACID] | 0.3

---

As shown below, each of these compounds has a reported Ht value.
Species on record: Rattus norvegicus
Test: Open TG-GATES - Regimen: Daily Repeat
Assay type: toxicity, organism-based, Sprague-Dawley
Parameters: regimen Daily Repeat, gender Male, age 6 weeks
Settings: in vivo, po, 0 mg/kg, […], tissue Blood, route gavage, dose level Control, time 28 day
EXPERIMENTAL_READOUT: Ht (%)

O=c1ccc2ccccc2o1 | 45.2
CN(CCOc1ccc(CC2SC(=O)NC2=O)cc1)c1ccccn1.O=C(O)/C=C\C(=O)O (stereo not drawn) [ROSIGLITAZONE MALEATE] | 44
O=C(O)c1ccccc1Nc1ccccc1 | 43
CN(C/C=C/C#CC(C)(C)C)Cc1cccc2ccccc12 | 43.8
COc1ccc([C@@H]2Sc3ccccc3N(CCN(C)C)C(=O)[C@@H]2OC(C)=O)cc1 | 45.8
NS(=O)(=O)c1cc(C(=O)O)c(NCc2ccco2)cc1Cl [FUROSEMIDE] | 44.6
CCO | 45.5
CC(S)C(=O)NCC(=O)O (stereo not drawn) | 43.2
CCN(CC)C(=S)SSC(=S)N(CC)CC | 44.8
CCCCC1C(=O)N(c2ccccc2)N(c2ccccc2)C1=O | 46.9
CCCCNC(=O)NS(=O)(=O)c1ccc(C)cc1 [TOLBUTAMIDE] | 47.1
Nc1ccc(Cc2ccc(N)cc2)cc1 | 42.2
CC(=O)[C@@]1(O)CC[C@H]2[C@@H]3C=C(Cl)C4=CC(=O)CC[C@]4(C)[C@H]3CC[C@@]21C | 44

---

Species: Rattus norvegicus
Test: Open TG-GATES - Regimen: Daily Repeat
Type: toxicity, organism-based, Sprague-Dawley
Design: regimen Daily Repeat, gender Male, age 6 weeks
Details: in vivo, po, 0 mg/kg, […], tissue Plasma, route gavage, dose level Control, time 7 day
EXPERIMENTAL_READOUT: TP (g/dL)

CC(S)C(=O)NCC(=O)O (configuration not stated) [TIOPRONIN] | 5.4
CCN(CC)C(=S)SSC(=S)N(CC)CC | 5.5
Nc1ccc(Cc2ccc(N)cc2)cc1 | 5.8
CCO [ALCOHOL] | 5.7
NS(=O)(=O)c1cc(C(=O)O)c(NCc2ccco2)cc1Cl [FUROSEMIDE] | 5.9
CCCCC1C(=O)N(c2ccccc2)N(c2ccccc2)C1=O [PHENYLBUTAZONE] | 6.6
O=C(O)c1ccccc1Nc1ccccc1 [FENAMIC ACID] | 5.7

---

Species: Rattus norvegicus
Experiment: Open TG-GATES - Regimen: Daily Repeat
Assay type: toxicity, organism-based, Sprague-Dawley
Set-up: regimen Daily Repeat, gender Male, age 6 weeks
Settings: in vivo, po, 300 mg/kg, […], tissue Kidney, route gavage, dose level Middle, time 7 day
Items are presented alongside their recorded KIDNEY_L.
EXPERIMENTAL_READOUT: KIDNEY_L (g)

O=C(O)c1ccccc1Nc1ccccc1 | 1.3
CC(=O)[C@@]1(O)CC[C@H]2[C@@H]3C=C(Cl)C4=CC(=O)CC[C@]4(C)[C@H]3CC[C@@]21C | 1
CCCCNC(=O)NS(=O)(=O)c1ccc(C)cc1 [TOLBUTAMIDE] | 1.1
CC(S)C(=O)NCC(=O)O (centres undefined) | 1.1

---

Collected RALB values appear next to each entry.
Species: Rattus norvegicus
Assay: Open TG-GATES - Regimen: Daily Repeat
Type: toxicity, organism-based, Sprague-Dawley
Set-up: regimen Daily Repeat, gender Male, age 6 weeks
Conditions: in vivo, po, 1000 mg/kg, […], tissue Plasma, route gavage, dose level High, time 14 day
EXPERIMENTAL_READOUT: RALB (g/dL)

O=C(O)c1ccccc1Nc1ccccc1 [FENAMIC ACID] | 2.9
CC(=O)[C@@]1(O)CC[C@H]2[C@@H]3C=C(Cl)C4=CC(=O)CC[C@]4(C)[C@H]3CC[C@@]21C [CHLORMADINONE] | 3.3
CCCCNC(=O)NS(=O)(=O)c1ccc(C)cc1 [TOLBUTAMIDE] | 2.7
CC(S)C(=O)NCC(=O)O (centres undefined) [TIOPRONIN] | 3.1

---

Species on record: Rattus norvegicus
Assay: Open TG-GATES - Regimen: Single
Assay type: toxicity, organism-based, Sprague-Dawley
Parameters: regimen Single, gender Male, age 6 weeks
Settings: in vivo, po, 0 mg/kg, 3 h, tissue Blood, route gavage, dose level Control
Measured Lym, listed per entry for reference.
EXPERIMENTAL_READOUT: Lym (%)

NS(=O)(=O)c1cc(C(=O)O)c(NCc2ccco2)cc1Cl [FUROSEMIDE] | 78.2
COc1ccc([C@@H]2Sc3ccccc3N(CCN(C)C)C(=O)[C@@H]2OC(C)=O)cc1 | 76.8
CN(C/C=C/C#CC(C)(C)C)Cc1cccc2ccccc12 | 81.8
COc1cc2ncnc(Nc3ccc(F)c(Cl)c3)c2cc1OCCCN1CCOCC1 | 74.2
CCO | 76
CN(C)CCCN1c2ccccc2Sc2ccc(Cl)cc21 | 76
C=C[C@H]1C[N@@]2CC[C@H]1C[C@@H]2[C@@H](O)c1ccnc2ccc(OC)cc12 | 78.2
O=C(O)c1ccccc1Nc1ccccc1 | 73.4
CCCCNC(=O)NS(=O)(=O)c1ccc(C)cc1 [TOLBUTAMIDE] | 78.2
Nc1ccc(Cc2ccc(N)cc2)cc1 | 73.6

---

Species: Rattus norvegicus
Experiment: Open TG-GATES - Regimen: Daily Repeat
Assay type: toxicity, organism-based, Sprague-Dawley
Set-up: regimen Daily Repeat, gender Male, age 6 weeks
Conditions: in vivo, po, 0 mg/kg, […], tissue Plasma, route gavage, dose level Control, time 28 day
EXPERIMENTAL_READOUT: GLC

CCN(CC)C(=S)SSC(=S)N(CC)CC | 202.8 mg/dL
CC(S)C(=O)NCC(=O)O (stereo not drawn) [TIOPRONIN] | 202.6 mg/dL
CC(=O)[C@@]1(O)CC[C@H]2[C@@H]3C=C(Cl)C4=CC(=O)CC[C@]4(C)[C@H]3CC[C@@]21C [CHLORMADINONE] | 201.4 mg/dL
O=C(O)c1ccccc1Nc1ccccc1 [FENAMIC ACID] | 192.8 mg/dL
CCO [ALCOHOL] | 219.2 mg/dL
CCCCNC(=O)NS(=O)(=O)c1ccc(C)cc1 [TOLBUTAMIDE] | 186.6 mg/dL
NS(=O)(=O)c1cc(C(=O)O)c(NCc2ccco2)cc1Cl [FUROSEMIDE] | 183.4 mg/dL
CCCCC1C(=O)N(c2ccccc2)N(c2ccccc2)C1=O [PHENYLBUTAZONE] | 200 mg/dL

---

Organism: Rattus norvegicus
Assay: Open TG-GATES - Regimen: Daily Repeat
Assay type: toxicity, organism-based, Sprague-Dawley
Parameters: regimen Daily Repeat, gender Male, age 6 weeks
Settings: in vivo, po, 0 mg/kg, […], tissue Blood, route gavage, dose level Control, time 14 day
EXPERIMENTAL_READOUT: Hb (g/dL)

CN(C/C=C/C#CC(C)(C)C)Cc1cccc2ccccc12 | 14.7
CCO | 15.2
O=c1ccc2ccccc2o1 | 14.2
CC(=O)[C@@]1(O)CC[C@H]2[C@@H]3C=C(Cl)C4=CC(=O)CC[C@]4(C)[C@H]3CC[C@@]21C | 14
CCCCC1C(=O)N(c2ccccc2)N(c2ccccc2)C1=O | 15
CN(CCOc1ccc(CC2SC(=O)NC2=O)cc1)c1ccccn1.O=C(O)/C=C\C(=O)O (configuration not stated) [ROSIGLITAZONE MALEATE] | 14
CCN(CC)C(=S)SSC(=S)N(CC)CC | 13.9
NS(=O)(=O)c1cc(C(=O)O)c(NCc2ccco2)cc1Cl [FUROSEMIDE] | 15
O=C(O)c1ccccc1Nc1ccccc1 | 14.5
Nc1ccc(Cc2ccc(N)cc2)cc1 | 13.4
CC(S)C(=O)NCC(=O)O (configuration not stated) | 14.1
CCCCNC(=O)NS(=O)(=O)c1ccc(C)cc1 [TOLBUTAMIDE] | 14.4

---

Organism: Rattus norvegicus
Experiment: Open TG-GATES - Regimen: Single
Assay type: toxicity, organism-based, Sprague-Dawley
Parameters: regimen Single, gender Male, age 6 weeks
Conditions: in vivo, po, 0 mg/kg, 6 h, tissue Blood, route gavage, dose level Control
EXPERIMENTAL_READOUT: Eos (%)

CCN(CC)C(=S)SSC(=S)N(CC)CC | 0.8
CN(C)CCCN1c2ccccc2Sc2ccc(Cl)cc21 | 1
CN(CCOc1ccc(CC2SC(=O)NC2=O)cc1)c1ccccn1.O=C(O)/C=C\C(=O)O (stereo not given) [ROSIGLITAZONE MALEATE] | 1.2
Nc1ccc(Cc2ccc(N)cc2)cc1 | 1
CN(C/C=C/C#CC(C)(C)C)Cc1cccc2ccccc12 | 0.8
COc1cc2ncnc(Nc3ccc(F)c(Cl)c3)c2cc1OCCCN1CCOCC1 | 0.8
CC(=O)[C@@]1(O)CC[C@H]2[C@@H]3C=C(Cl)C4=CC(=O)CC[C@]4(C)[C@H]3CC[C@@]21C | 0.6
NS(=O)(=O)c1cc(C(=O)O)c(NCc2ccco2)cc1Cl [FUROSEMIDE] | 1.2
CCCCNC(=O)NS(=O)(=O)c1ccc(C)cc1 [TOLBUTAMIDE] | 1
CCO | 1
